Tested on: A549 NSCLC
Test: NCI tumour cell line growth inhibition, 48 h; in the data active = GI50 below about 0.43 µM; inactive = the rest
Result category, one only: active, inactive

For this compound, state the assay outcome: Cc1ccc(-c2csc(NC(=O)N3CCN(c4cc5c(cc4F)c(=O)c(C(=O)O)cn5C4CC4)CC3)n2)cc1
active

For this compound, state the assay outcome: c1ccc2[nH]c(-c3cc(-c4ccc5c(c4)OCO5)n[nH]3)nc2c1
inactive

For this compound, state the assay outcome: O=C(Nc1ccc(Oc2cccc(F)c2)c(Cl)c1)c1cnccn1
inactive

For this compound, state the assay outcome: CC(C)CCNCC(O)Cn1c2ccccc2c2ccccc21 (stereo not given)
inactive

For this compound, state the assay outcome: O=S(=O)(c1cccc2c(I)cccc12)N1CCCNCC1
inactive

For this compound, state the assay outcome: CN(C)CC1CCC2=C(C1=O)C(c1ccc(Cl)c(Cl)c1)C1=C(CCC(CN(C)C)C1=O)O2 (stereo not given)
inactive

For this compound, state the assay outcome: O=[N+]([O-])c1ccc(N=Nc2ccc(O)c3ccccc23)cc1
inactive

For this compound, state the assay outcome: CCOC(=O)C1CCCCN1C(=O)c1ccc(Nc2cnc3cc(C(F)(F)F)ccc3n2)cc1 (stereo not given)
inactive

For this compound, state the assay outcome: Cc1cnc(CNC(=O)c2c(=O)c3ccc(N4CCCN(C)CC4)nc3n3c2sc2ccccc23)cn1
active

For this compound, state the assay outcome: O=C1C(SCCO)=C(SCCO)C(=O)N1c1ccc(-c2ccccc2)cc1
inactive
